- System: A549
- test: Antiproliferative activity against human A549 cells incubated for 72 hrs by MTT assay
- Format: functional, cell-based
- applied_conditions: A549, 72 h
Please go through the items and note down their pIC50.
Value format note: pIC50 is -log10 of concentration (mol/L); just state the number.

(Q) What does the record list as pIC50 for `O=C(Nc1ccc(CCNc2n[nH]c(=O)c3ccccc23)cc1)C1CCCCC1` ?
(A) 5.22

(Q) What does the record list as pIC50 for `O=C(Nc1ccc(Nc2n[nH]c(=O)c3ccccc23)cc1)Nc1ccc(Cl)c(C(F)(F)F)c1` ?
(A) 4.86

(Q) What does the record list as pIC50 for Cc1cc(Nc2cc(N3CCN(C)CC3)nc(Sc3ccc(NC(=O)C4CC4)cc3)n2)n[nH]1 [TOZASERTIB] ?
(A) 5.16

(Q) What does the record list as pIC50 for `O=C(CC1CCCCC1)Nc1ccc(CCNc2n[nH]c(=O)c3ccccc23)cc1` ?
(A) 4.86

(Q) What does the record list as pIC50 for `O=C(Nc1ccc(CCNc2n[nH]c(=O)c3ccccc23)cc1)c1ccc(Cl)c(C(F)(F)F)c1` ?
(A) 5.18

(Q) What does the record list as pIC50 for `O=C(Nc1ccc(CCNc2n[nH]c(=O)c3ccccc23)cc1)NC1CCCCC1` ?
(A) 4.52

(Q) What does the record list as pIC50 for `O=C(Nc1ccc(CCNc2n[nH]c(=O)c3ccccc23)cc1)c1cccc(C(F)(F)F)c1` ?
(A) 4.89

(Q) What does the record list as pIC50 for `O=C(Nc1ccc(CCNc2n[nH]c(=O)c3ccccc23)cc1)Nc1cccc(C(F)(F)F)c1` ?
(A) 5.11

(Q) What does the record list as pIC50 for `O=C(Nc1ccc(Nc2n[nH]c(=O)c3ccccc23)cc1)Nc1cccc(C(F)(F)F)c1` ?
(A) 4.79

(Q) What does the record list as pIC50 for `O=C(Nc1ccc(CCNc2n[nH]c(=O)c3ccccc23)cc1)Nc1ccc(Cl)c(C(F)(F)F)c1` ?
(A) 4.69
